From: patent US20110165063A1

# experimental system: T1, recombinant human IL-1α (human, UniProt P01583 113-271)
# T1 construct: also called hIL-1α; rh IL-1α
# T1 sequence: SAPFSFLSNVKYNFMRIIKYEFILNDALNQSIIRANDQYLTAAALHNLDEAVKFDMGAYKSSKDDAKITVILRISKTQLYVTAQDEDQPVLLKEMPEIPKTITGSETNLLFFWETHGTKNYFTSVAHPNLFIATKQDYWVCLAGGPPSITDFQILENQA
# test method notes: SPR (BIACORE), antibody captured, IL-1α in solution
test readout: kon (M⁻¹ s⁻¹)
Number only, in M⁻¹ s⁻¹; omit the unit.

h3D12.16 (antibody, V domains shown, also called humanized 3D12 antibody h3D12.16; VH H3D12VH.2A / VL H3D12VK.1C) VH: EIQLVQSGAEVKKPGASVKVSCKASGYTFTNYGMNWVRQAPGQDLERMAWINTYTGESTYADDFKGRFTFTLDTSTSTAYMELSSLRSEDTAVYFCARGIYYYGSSYAMDYWGQGTTVTVSS VL: DIQMTQSPSSLSASVGDRVTITCRASQDISNCLNWYQQKPGKTPKLLIYYTSRLHSGVPSRFSGSGSGTDYTFTISSLQPEDIATYFCQQGKTLPYAFGQGTKLEIK
1.21e+06
h3D12.r16 (antibody, V domains shown) VH: EVQLVQSGAEVKKPGASVKVSCKASGYTFKYYGMNWVRQAPGQGLERMGWINTYTGQSTYADDFKGRVTFTLDTSTSTAYMELSSLRSEDTAVYYCARDIYYYGSDFAMDYWGQGTTVTVSS VL: DIQMTQSPSSLSASVGDRVTITCRASQDISNMLNWYQQKPGKAPKLLIYYTSRLKPGVPSRFSGSGSGTDYTFTISSLQPEDIATYFCQQGKTAPYTFGQGTKLEIK
900000
h3D12-362-10/372-15 (antibody, V domains shown) VH: EVQLVQSGAEVKKPGVSVKVSCKASGYTFTTYGMHWVRQAPGQGLEWMGWINTYTGESTYADDFQGRVTFTLDTSTSTAYMELSSLRSEDTAVYFCARGIYYYGSSYAMNYWGQGTTVTVSS VL: DIQMTQSPSSLSASVGDRVTITCRASQDISNMLNWYQQKPGKTPKLLIYYTSRLYPGVPSRFSGSGSGTDYTFTISSLQPEDIATYFCQQGKTLPYAFGQGTKLEIK
355000

Data request: Look up kon: h3D12.r10 (antibody, V domains shown) VH: EIQLVQSGAEVKKPGASVKVSCKASGYTFAHYGMNWVRQAPGQGLEWMGWINTYTGQSTYADDFKGRFTFTLDTSTSTAYMELSSLRSEDTAVYYCARGIYYFGSNYAMDYWGQGTTVTVSS VL: DIQMTQSPSSLSASVGDRVTITCRASQDISNMLNWYQQKPGKTPKLLIYYTSRLRSGVPSRFSGSGSGTDYTFTISSLQPEDIATYFCQQGKKPPYTFGQGTKLEIK
Data returned: 1.16e+06

Data request: Look up kon: h3D12.r37 (antibody, V domains shown) VH: EIQLVQSGAEVKKPGASVKVSCKASGYTFKYYGMNWVRQAPGQGLERMGWINTYTGESRYADDFKGRVTFTLDTSTSTAYMELSSLRSEDTAVYYCARDIYYFGSDYAMDYWGQGTTVTVSS VL: DIQMTQSPSSLSASVGDRVTITCRASQDISNRLNWYQQKPGKAPKLLIYYASRLKPGVPSRFSGSGSGTDYTFTISSLQPEDIATYFCQQGNTPPYTFGQGTKLEIK
Data returned: 896000

Data request: Look up kon: h3D12.8 (antibody, V domains shown, also called humanized 3D12 antibody h3D12.8; VH H3D12VH.1A / VL H3D12VK.1C) VH: EIQLVQSGSELKKPGASVKVSCKASGYTFTNYGMNWVRQAPGQDLERMAWINTYTGESTYADDFKGRFVFSLDTSVSTAYLQISSLKAEDTAVYFCARGIYYYGSSYAMDYWGQGTTVTVSS VL: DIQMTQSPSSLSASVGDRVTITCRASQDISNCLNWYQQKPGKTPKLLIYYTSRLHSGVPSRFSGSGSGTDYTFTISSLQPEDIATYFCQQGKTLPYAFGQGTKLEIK
Data returned: 2.04e+06
